The values you see were collected from PubChem BioAssay AID1845196.

Below, each entry is listed alongside its reported IC50.
Tested on: 292921-168-R tumor spheroid viability
Experiment: Anticancer human tumor 292921-168-R patient-derived pancreatic carcinoma cell line growth inhibition
Conditions: curve of first compound; second compound 0.03 µM; spheroids with HUVEC and MSC

1) CNCc1ccc(-c2cc(-c3nc(-c4ccc(S(=O)(=O)C(C)C)cc4)cnc3N)on2)cc1 + CC[C@@]1(O)C(=O)OCc2c1cc1n(c2=O)Cc2cc3c(CN(C)C)c(O)ccc3nc2-1: < 9.49 nM
2) CC1COCCN1c1cc(-c2ccnn2C)c2ccnc(-c3ccn[nH]3)c2n1 (stereo not given) + CC[C@@]1(O)C(=O)OCc2c1cc1n(c2=O)Cc2cc3c(CN(C)C)c(O)ccc3nc2-1: < 31.6 nM
3) Cc1sc2c(c1C)C(c1ccc(Cl)cc1)=NC(CC(=O)Nc1ccc(O)cc1)c1nnc(C)n1-2 (stereo not given) + CC[C@@]1(O)C(=O)OCc2c1cc1n(c2=O)Cc2cc3c(CN(C)C)c(O)ccc3nc2-1: < 9.49 nM
4) Cn1ncnc1[C@H]1c2n[nH]c(=O)c3cc(F)cc(c23)N[C@@H]1c1ccc(F)cc1 + CC[C@@]1(O)C(=O)OCc2c1cc1n(c2=O)Cc2cc3c(CN(C)C)c(O)ccc3nc2-1: < 9.49 nM

Requested field: IC50. Item: COc1ccc([C@@H](O)c2cc(-c3ncnc4cc(N5CCOCC5)ccc34)c(F)cc2Cl)nn1 + CC[C@@]1(O)C(=O)OCc2c1cc1n(c2=O)Cc2cc3c(CN(C)C)c(O)ccc3nc2-1
< 31.6 nM

====

Tested on: 292921-168-R tumor spheroid viability
Experiment: Anticancer human tumor 292921-168-R cell line growth inhibition;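 note: spheroids exposed to compounds for 7 days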
Details: second compound 0.003 µM; first compound 0.949 µM; stronger effect = lower value; spheroids with HUVEC and MSC
Protocol: Multicellular complex tumor spheroid response to DNA repair inhibitors in combination with DNA-damaging drugs This study explores the anticancer activities of DNA-damaging drugs and inhibitors of DNA damage repair, both as single agents and in combinations. […] Twenty-six patient-derived or established malignant cell lines were evaluated representing sarcoma, melanoma, small cell lung cancer (SCLC), non-small cell lung cancer (NSCLC), as well as bladder, ovarian and pancreatic cancers. […]
ASSAY ENDPOINT: viability, T/C

Sample answers from the record:
1. Cn1ncnc1[C@H]1c2n[nH]c(=O)c3cc(F)cc(c23)N[C@@H]1c1ccc(F)cc1 + COc1cc2c(cc1O)CCNC21CSC2c3c(OC(C)=O)c(C)c4c(c3C(COC1=O)N1C(O)C3Cc5cc(C)c(OC)c(O)c5C(C21)N3C)OCO4: 0.18%
2. CNCc1ccc(-c2cc(-c3nc(-c4ccc(S(=O)(=O)C(C)C)cc4)cnc3N)on2)cc1 + CC[C@@]1(O)C(=O)OCc2c1cc1n(c2=O)Cc2cc3c(CN(C)C)c(O)ccc3nc2-1: 16.6%
3. Cc1sc2c(c1C)C(c1ccc(Cl)cc1)=NC(CC(=O)Nc1ccc(O)cc1)c1nnc(C)n1-2 (stereo not drawn) + COc1cc2c(cc1O)CCNC21CSC2c3c(OC(C)=O)c(C)c4c(c3C(COC1=O)N1C(O)C3Cc5cc(C)c(OC)c(O)c5C(C21)N3C)OCO4: 0.25%
4. Cc1sc2c(c1C)C(c1ccc(Cl)cc1)=NC(CC(=O)Nc1ccc(O)cc1)c1nnc(C)n1-2 (stereo not drawn) + CC[C@@]1(O)C(=O)OCc2c1cc1n(c2=O)Cc2cc3c(CN(C)C)c(O)ccc3nc2-1: 44.1%
5. CNCc1ccc(-c2cc(-c3nc(-c4ccc(S(=O)(=O)C(C)C)cc4)cnc3N)on2)cc1 + COc1cc2c(cc1O)CCNC21CSC2c3c(OC(C)=O)c(C)c4c(c3C(COC1=O)N1C(O)C3Cc5cc(C)c(OC)c(O)c5C(C21)N3C)OCO4: 0.24%
6. O=C(c1cc(Cc2n[nH]c(=O)c3ccccc23)ccc1F)N1CCN(C(=O)C2CC2)CC1 + CC[C@@]1(O)C(=O)OCc2c1cc1n(c2=O)Cc2cc3c(CN(C)C)c(O)ccc3nc2-1: 83.2%

Requested field: viability, T/C. Item: Cn1ncnc1[C@H]1c2n[nH]c(=O)c3cc(F)cc(c23)N[C@@H]1c1ccc(F)cc1 + CC[C@@]1(O)C(=O)OCc2c1cc1n(c2=O)Cc2cc3c(CN(C)C)c(O)ccc3nc2-1
31.4%

Requested field: viability, T/C. Item: O=C(c1cc(Cc2n[nH]c(=O)c3ccccc23)ccc1F)N1CCN(C(=O)C2CC2)CC1 + COc1cc2c(cc1O)CCNC21CSC2c3c(OC(C)=O)c(C)c4c(c3C(COC1=O)N1C(O)C3Cc5cc(C)c(OC)c(O)c5C(C21)N3C)OCO4
0.13%
